System: A673/TR/shEF
ASSAY_EXPLANATION: cell viability (LOESS-normalised, relative to median of negative controls) (log2 ratio); higher = more viable cells (less compound effect), active = hit call of the paper (over 3 MAD below the median)
CONDITION: 0.25 µM; library screen: screen2; EWS-FLI1 expression: high (no doxycycline); treatment time: 72 h
Hit rate of the full screen: of about 3,200 compounds, about 300 (9.4%) showed activity. Shown is part of a subset that was picked to be rich in actives.
The reply should name one outcome from class 1 for active, class 0 for inactive

# COMPOUND, SYSTEM_UNDER_TEST, DISCRETE_LABEL
rows = [
    ("CCC1(c2ccccc2)C(=O)NCNC1=O", "A673/TR/shEF", "class 0"),
]

Field: outcome | Entry: O=C1Nc2ccc(I)cc2/C1=C/c1cc(Br)c(O)c(Br)c1
class 0

Field: outcome | Entry: Nc1ncnc2c1ncn2C1OC(C(=O)NC2CC2)C(O)C1O (configuration not stated)
class 0

Field: outcome | Entry: Nc1ccc(S(=O)(=O)Nc2ccnn2-c2ccccc2)cc1
class 0

Field: outcome | Entry: CC(C)C[C@H](NC(=O)[C@@H](O)[C@H](N)Cc1ccccc1)C(=O)O
class 0

Field: outcome | Entry: CCCCCCCCCC(=O)NC(CN1CCOCC1)C(O)c1ccccc1 (configuration not stated)
class 1

Field: outcome | Entry: CN[C@H](Cc1ccccc1)C(=O)N1CCC[C@H]1C(=O)N[C@@H](Cc1c[nH]c2ccccc12)C(=O)C(F)(F)C(F)(F)F
class 0

Field: outcome | Entry: C=C(O)CCC/C=C\C[C@@H]1[C@@H](/C=C/[C@H](O)C2Cc3ccccc3C2)[C@@H](F)C[C@@H]1O
class 0

Field: outcome | Entry: CC1(C)C(=O)N(CCN2CCC(C(=O)c3ccc(F)cc3)CC2)c2ccccc21
class 0

====

Tested on: A673/TR/shEF
ASSAY_EXPLANATION: cell viability (LOESS-normalised, relative to median of negative controls) (log2 ratio); higher = more viable cells (less compound effect), active = hit call of the paper (over 3 MAD below the median)
CONDITION: 0.25 µM; library screen: screen1; EWS-FLI1 expression: high (no doxycycline); treatment time: 72 h
Screen size: about 3,200 compounds; about 300 (9.4%) showed activity. Shown is part of a subset that was picked to be rich in actives.
The reply should name one outcome from 1 (yes) for active, 0 (no) for inactive

# MOL, SYSTEM_UNDER_TEST, DISCRETE_LABEL
records = [
    ("CCCCOc1ccc(CC(=O)NO)cc1", "A673/TR/shEF", "0 (no)"),
]

Field: outcome | Entry: Cc1c(C(=O)O)c(O)cc2c1C(=O)c1c(O)c([C@@H]3O[C@H](CO)[C@@H](O)[C@H](O)[C@H]3O)c(O)c(O)c1C2=O
0 (no)

Field: outcome | Entry: C=C1CC/C=C(/C)CC[C@@H]2[C@@H]1CC2(C)C
0 (no)

====

Test system: A673/TR/shEF
ASSAY_EXPLANATION: cell viability (LOESS-normalised, relative to median of negative controls) (log2 ratio); higher = more viable cells (less compound effect), active = hit call of the paper (over 3 MAD below the median)
CONDITION: 0.25 µM; library screen: screen2; EWS-FLI1 expression: low (doxycycline-induced shRNA knockdown); treatment time: 72 h
Screen size: about 3,200 compounds; about 300 (9.4%) showed activity. The full list was thinned out, with actives kept by preference.
Assign labels as follows, please: Criterion met for cell viability (log2) below 0.05; Criterion not met for cell viability (log2) equal to or exceeding 0.05.

Please review the following examples before continuing.
# MOLECULE, DISCRETE_LABEL
data = [
    ("CN(C)CCC=C1c2ccccc2CCc2ccccc21", "Criterion not met"),
    ("CCN(CC)CCNC(=O)c1cc(S(C)(=O)=O)ccc1OC", "Criterion not met"),
    ("CCC(C)[C@H]1O[C@]2(CC[C@@H]1C)CC1C[C@@H](C/C=C(\\C)[C@@H](O[C@H]3C[C@H](OC)[C@@H](OC4C[C@H](OC)[C@@H](O)[C@H](C)O4)[C@H](C)O3)[C@@H](C)/C=C/C=C3\\CO[C@@H]4[C@H](O)C(C)=C[C@@H](C(=O)O1)[C@]34O)O2.CO[C@H]1CC(O[C@H]2[C@H](C)O[C@@H](O[C@@H]3/C(C)=C/C[C@@H]4CC(C[C@]5(CC[C@H](C)[C@@H](C(C)C)O5)O4)OC(=O)[C@@H]4C=C(C)[C@@H](O)[C@H]5OC/C(=C\\C=C\\[C@@H]3C)[C@]54O)C[C@@H]2OC)O[C@@H](C)[C@@H]1O (stereo partly specified)", "Criterion not met"),
]

Consider N#CC(C#N)=C(N)/C(C#N)=C/c1cc(O)c(O)c(O)c1 . Does its cell viability (log2) lie strictly below 0.05?
Criterion not met

Consider CC(C)NC[C@H](O)c1ccc(O)c(O)c1 . Does its cell viability (log2) lie strictly below 0.05?
Criterion not met

Consider CN(C)CCC=C1c2ccccc2C=Cc2ccccc21 . Does its cell viability (log2) lie strictly below 0.05?
Criterion not met

Consider Nc1nc(Cl)nc2c1ncn2[C@@H]1O[C@H](CO)[C@@H](O)[C@H]1O . Does its cell viability (log2) lie strictly below 0.05?
Criterion not met

Consider O=c1[nH]c(=O)n([C@H]2C[C@H](O)[C@@H](CO)O2)cc1F . Does its cell viability (log2) lie strictly below 0.05?
Criterion not met

Consider NC(CCC(=O)NCS(=O)(=O)O)C(=O)O (stereo unspecified) . Does its cell viability (log2) lie strictly below 0.05?
Criterion met

Consider O=C(O)/C=C/c1ccc(O)c(O)c1 . Does its cell viability (log2) lie strictly below 0.05?
Criterion not met

Consider O=C(Nc1cc(C(=O)Nc2ccc(S(=O)(=O)O)c(S(=O)(=O)O)c2)cc(C(=O)Nc2ccc(S(=O)(=O)O)c(S(=O)(=O)O)c2)c1)Nc1cc(C(=O)Nc2ccc(S(=O)(=O)O)c(S(=O)(=O)O)c2)cc(C(=O)Nc2ccc(S(=O)(=O)O)c(S(=O)(=O)O)c2)c1 . Does its cell viability (log2) lie strictly below 0.05?
Criterion not met

Consider CSc1nc(N)c2ncn(C3OC(COP(=O)(O)OP(=O)(O)O)C(O)C3O)c2n1 (stereo unspecified) . Does its cell viability (log2) lie strictly below 0.05?
Criterion not met
